- System: E. multilocularis metacestode vesicles
- ASSAY: Phosphoglucose isomerase (PGI) release assay (damage-marker release) on metacestode vesicles
- Type: cell-based, Echinococcus multilocularis
- CONDITIONS_USED: overview screen, 10 μM, singlets, 12 days, relative to 0.1 % Triton X-100, DMSO subtracted
The threshold is inclusive: PGI d12 (relative PGI release) of exactly -10% counts as met; values below receive not met.

Worked cases, answers included:
COC1CC2CCC(C)C(O)(O2)C(=O)C(=O)N2CCCCC2C(=O)OC(C(C)CC2CCC(OCCO)C(OC)C2)CC(=O)C(C)/C=C(\C)C(O)C(OC)C(=O)C(C)CC(C)/C=C/C=C/C=C/1C (stereo not shown) [MMV639951]: not met
NC(=O)c1ccc(I)c([N+](=O)[O-])c1 [MMV1581035]: met
COc1cc(NC(=O)CN2C(=O)NC(c3ccccc3)(c3ccccc3)C2=O)cc(OC)c1 [MMV1578572]: not met
CCCCc1ccc(S(=O)(=O)Nc2cc(C)on2)cc1 [MMV1782108]: not met

Q: Record NC(N)=NCCCCC(=O)Nc1cc(C(F)(F)F)cc(NC(=O)c2cc(C(=O)Nc3cc(C(F)(F)F)cc(NC(=O)CCCCN=C(N)N)c3O[C@@H]3CCNC3)ncn2)c1O[C@@H]1CCNC1 [MMV1634402] ; criterion: PGI d12 (relative PGI release) no lower than -10%. Met?
Ans: met

Q: Reported PGI d12 (relative PGI release) reaches at least -10% for Cc1cc(C2CCCCC2)n(O)c(=O)c1 [MMV002731] ?
Ans: not met

Q: Given O=S(=O)(NCB(O)O)c1cc2c(Cl)ccc(Cl)c2s1 [MMV1580841] , state whether its PGI d12 (relative PGI release) is at least -10%.
Ans: not met

Q: Please tell me: is the compound CCc1cc(CCCOc2c(C)cc(-c3noc(C(F)(F)F)n3)cc2C)on1 [MMV1634556] at or over -10% in terms of PGI d12 (relative PGI release)?
Ans: not met

Q: # check: PGI d12 (relative PGI release) of O=C(NNC(=S)Nc1ccc(Cl)cc1)c1ccncc1 [MMV1782227] is greater than or equal to -10%
Ans: met

Q: Threshold query (PGI d12 (relative PGI release) >= -10%) on O=C(Cn1cnc2ccccc2c1=O)Nc1ccccc1 [MMV1578891]
Ans: met

Q: Given the entry COc1ccccc1CN[C@H]1C2CCN(CC2)[C@H]1C(c1ccccc1)c1ccccc1 [MMV690480] , answer whether its PGI d12 (relative PGI release) meets or surpasses -10%.
Ans: not met

Q: Does Cc1c(OCC(F)(F)F)ccnc1C[S+]([O-])c1nc2ccccc2[nH]1 (stereo not shown) [MMV001438] have a reported PGI d12 (relative PGI release) of at least -10%?
Ans: met

Q: Identify whether the reported PGI d12 (relative PGI release) of the following compound is -10% or greater: CCCCCCCCC(CP(=O)(O)C(C)N)C(=O)O (stereo not shown) [MMV1582487]
Ans: not met

* * *

Task for the reader: assign each of the following compounds its reported Viability d12 (relative viability).
- Tested on: E. multilocularis metacestode vesicles
- ASSAY: Metacestode vesicle viability assay (ATP, CellTiter-Glo)
- Type: cell-based, Echinococcus multilocularis
- CONDITIONS_USED: overview screen, 10 μM, singlets, 12 days, relative to DMSO control
One number for each entry, in %.

CC(C)(C)NC(=O)[C@@H]1CN(Cc2cnc3occc3c2)CCN1C[C@@H](O)C[C@@H](Cc1ccccc1)C(=O)N[C@H]1c2ccccc2C[C@H]1O: 92.6641
CCNC(=O)Nc1cc2c(-c3ccnc(C)c3)ccc(CNC(=O)OC)c2cn1: 29.4745
O=C1[C@H](CC[C@H](O)c2ccc(F)cc2)[C@@H](c2ccc(O)cc2)N1c1ccc(F)cc1: 84.8656
O=C(Nc1nnc(-c2ccc(Cl)cc2)o1)c1nc2ccccc2s1: 141.762
O=C(Nc1[nH]c(=O)ncc1F)c1ccccc1: 224.691

--- query ---
Q: Can you look up the measured Viability d12 (relative viability) of O=C(Nc1ncc(Cc2cccc3ccccc23)s1)C1CCCCC1 for me?
Ans: 94.209
